Molecular target: hGLP-1R (Homo sapiens, UniProt P43220)
Sequence (P43220 24-463): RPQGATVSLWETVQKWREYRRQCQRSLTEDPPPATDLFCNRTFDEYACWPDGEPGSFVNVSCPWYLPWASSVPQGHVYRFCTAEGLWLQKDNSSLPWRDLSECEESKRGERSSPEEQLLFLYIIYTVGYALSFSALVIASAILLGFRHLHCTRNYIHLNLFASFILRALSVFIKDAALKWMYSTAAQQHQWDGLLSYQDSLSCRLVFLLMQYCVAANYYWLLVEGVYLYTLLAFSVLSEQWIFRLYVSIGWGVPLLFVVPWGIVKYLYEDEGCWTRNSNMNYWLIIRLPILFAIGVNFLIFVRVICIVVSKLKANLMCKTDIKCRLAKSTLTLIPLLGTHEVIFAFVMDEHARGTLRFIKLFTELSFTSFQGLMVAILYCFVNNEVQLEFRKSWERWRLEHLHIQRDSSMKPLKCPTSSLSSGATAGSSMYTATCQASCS
Assay: cell-based or functional assay
Starred links: 1 amine or outer side, 2 acyl side, 3 side chain; linkers in the order of their positions; H or OH if unused. Non-standard residues stand in square brackets, D forms with d. Groups on a side chain read outwards from the residue. No end group written: not given here. *: point of attachment. C20 diacid = O=C(O)CCCCCCCCCCCCCCCCCCC(=O)*; γGlu = O=C(O)[C@H](CCC(=O)[*:2])N[*:1]; αMeL = CC(C)C[C@](C)(N)C(=O)O; Orn = NCCC[C@H](N)C(=O)O; AEEA = NCCOCCOCC(=O)O; Aib = CC(C)(N)C(=O)O
Quantity: cAMP Rel EC50 (1% HSA)
Write your answer as a measured quantity: the number, then the unit.

Return value of cAMP Rel EC50 (1% HSA) for input YXQGTXTSDXXIXLDXKAAXEFIEXLIEGGPSSGEPPPSGGGE (synthetic construct; SITE 2: note = 2-Aminoisobutyric Acid; SITE 6: note = alpha-methyl-2-fluoro-L-phenylalanine; SITE 10: note = 3-(4-Pyridyl)-L-alanine; SITE 11: note = alpha-methyl-L-serine; SITE 13: note = alpha-methyl-leucine; SITE 16: note = L-ornithine; SITE 17: note = Lysine is chemically mo) [Example 746] , no commentary. 38.6 nM

Indicate its recorded cAMP Rel EC50 (1% HSA); the binder in question is Y[Aib]QGTFTSDYSK[αMeL]LDKKAQQAFIEYLIAGGPSSGEPPPSGD-NH2 (not fully specified (residue 17)) [Example 337] 272 nM

Complete the entry with cAMP Rel EC50 (1% HSA) for YXQGTFTSDXSQXLDKKAQXAFIEYLIEXGPSSGAPPPSGS (Lys acylated γGlu-C18 diacid; non-natural residues; C-amide; synthetic construct; SITE 2: note = 2-Aminoisobutyric Acid; SITE 10: note = 3-(4-Pyridyl)-L-alanine; SITE 13: note = alpha-methyl-leucine; SITE 17: note = Lysine is chemically modified through conjugation of the epsilon-amino group of the Lysine side chain with (gamma-Glu)-(D-Glutamic acid)2-CO-(CH2)) [Example 922] 357 nM

Give recorded cAMP Rel EC50 (1% HSA). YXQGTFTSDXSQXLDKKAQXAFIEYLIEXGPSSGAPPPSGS (non-natural residues; C18 diacid-γGlu-e on Lys; C-terminal amide; synthetic construct; SITE 2: note = 2-Aminoisobutyric Acid; SITE 10: note = 3-(4-Pyridyl)-L-alanine; SITE 13: note = alpha-methyl-leucine; SITE 17: note = Lysine is chemically modified through conjugation of the epsilon-amino group of the Lysine side chain with D-Glutamic acid-(gamma-Glu)-CO-(CH2)16) [Example 920] 322 nM

Please look at this binder and report its cAMP Rel EC50 (1% HSA): Y[Aib]QGTFTSDYSI[αMeL]LD[Orn]QAAK([AEEA-AEEA-γGlu-C20 diacid])QFVEWLLA[Aib]GPSSGEPPPSEG-NH2 [Example 328] 462 nM

Measured values drawn from patent US20240270821A1 for this set.
